- System: T-47D spheroids with HUVEC/MSC, viability
- ASSAY: Anticancer human tumor T-47D cell line growth inhibition [PI3K];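 also: spheroids exposed to agents for seven days before reading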
- STATED_CONDITIONS: second compound 0.01 µM; first compound 3.16 µM; stronger effect = lower value
Response field label: string, one of Yes (viability, T/C strictly below 90%) or No.

{"MOLECULE": "C#Cc1c(F)ccc2cc(O)cc(-c3ncc4c(N5CC6CCC(C5)N6)nc(OCC56CCCN5CC(F)C6)nc4c3F)c12 (stereo not given) + CC(Nc1ccc2c(c1)OCCn1cc(N3C(=O)OCC3C(F)F)nc1-2)C(N)=O", "TARGET_OR_TEST_SYSTEM": "T-47D spheroids with HUVEC/MSC, viability", "LABEL": "No"}
{"MOLECULE": "CC1(C)CCC(Nc2ncc(C(F)(F)F)c(-c3c[nH]c4c(P(C)(C)=O)c(C#N)ccc34)n2)CN1 (stereo not given) + COc1c(OCCCN2CCOCC2)ccc2c3n(c(=NC(=O)c4cnc(N)nc4)nc12)CCN3", "TARGET_OR_TEST_SYSTEM": "T-47D spheroids with HUVEC/MSC, viability", "LABEL": "Yes"}
{"MOLECULE": "C=CC(=O)N1CCN(c2nc(=O)n(-c3c(C)ccnc3C(C)C)c3nc(-c4c(O)cccc4F)c(F)cc23)C(C)C1 (stereo not given) + COc1c(OCCCN2CCOCC2)ccc2c3n(c(=NC(=O)c4cnc(N)nc4)nc12)CCN3", "TARGET_OR_TEST_SYSTEM": "T-47D spheroids with HUVEC/MSC, viability", "LABEL": "No"}
{"MOLECULE": "Cn1ncc(Cl)c1-c1cc(C(=O)NC(CN)Cc2cccc(F)c2)sc1Cl (stereo not given) + CC(Nc1ccc2c(c1)OCCn1cc(N3C(=O)OCC3C(F)F)nc1-2)C(N)=O", "TARGET_OR_TEST_SYSTEM": "T-47D spheroids with HUVEC/MSC, viability", "LABEL": "Yes"}

###

Here, each record is paired with measured IC50 data.
- Tested on: T-47D spheroids with HUVEC/MSC, viability
- ASSAY: Anticancer human tumor T-47D cell line growth inhibition [PI3K];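 also: spheroids exposed to agents for seven days before reading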
- STATED_CONDITIONS: curve of first compound; second compound 0.0316 µM
- Text: Combinatorial screen of targeted agents with the PI3K inhibitors inavolisib, alpelisib, duvelisib, and copanlisib in multi-cell type tumor spheroids A high-throughput screen of multi-cell type tumor spheroids was designed to identify active combinations of targeted small molecules and PI3K pathway inhibitors. […] Compounds. […] If the clinical Cmax for an agent had not been determined, the highest concentration tested was 10 microM. […]
MEASURED_PARAMETER: IC50

{"COMPOUND": "CC(C)NCC(C(=O)N1CCN(c2ncnc3c2C(C)CC3O)CC1)c1ccc(Cl)cc1 (stereo unspecified) + COc1c(OCCCN2CCOCC2)ccc2c3n(c(=NC(=O)c4cnc(N)nc4)nc12)CCN3", "TARGET_OR_TEST_SYSTEM": "T-47D spheroids with HUVEC/MSC, viability", "MEASURED_PARAMETER": "IC50", "RESULT": "0.324 µM"}
{"COMPOUND": "CNC(=O)c1ccc(N2C(=S)N(c3ccc(C#N)c(C(F)(F)F)c3)C(=O)C2(C)C)cc1F + Cc1nc(NC(=O)N2CCCC2C(N)=O)sc1-c1ccnc(C(C)(C)C(F)(F)F)c1", "TARGET_OR_TEST_SYSTEM": "T-47D spheroids with HUVEC/MSC, viability", "MEASURED_PARAMETER": "IC50", "RESULT": "> 10 µM"}
{"COMPOUND": "C#Cc1c(F)ccc2cc(O)cc(-c3ncc4c(N5CC6CCC(C5)N6)nc(OCC56CCCN5CC(F)C6)nc4c3F)c12 (stereo unspecified) + CC(Nc1ncnc2nc[nH]c12)c1cc2cccc(Cl)c2c(=O)n1-c1ccccc1", "TARGET_OR_TEST_SYSTEM": "T-47D spheroids with HUVEC/MSC, viability", "MEASURED_PARAMETER": "IC50", "RESULT": "> 10 µM"}
{"COMPOUND": "CC1(C)CCC(Nc2ncc(C(F)(F)F)c(-c3c[nH]c4c(P(C)(C)=O)c(C#N)ccc34)n2)CN1 (stereo unspecified) + CC(Nc1ncnc2nc[nH]c12)c1cc2cccc(Cl)c2c(=O)n1-c1ccccc1", "TARGET_OR_TEST_SYSTEM": "T-47D spheroids with HUVEC/MSC, viability", "MEASURED_PARAMETER": "IC50", "RESULT": "> 10 µM"}
{"COMPOUND": "Cn1ncnc1[C@H]1c2n[nH]c(=O)c3cc(F)cc(c23)N[C@@H]1c1ccc(F)cc1 + CC(Nc1ccc2c(c1)OCCn1cc(N3C(=O)OCC3C(F)F)nc1-2)C(N)=O", "TARGET_OR_TEST_SYSTEM": "T-47D spheroids with HUVEC/MSC, viability", "MEASURED_PARAMETER": "IC50", "RESULT": "> 0.1 µM"}
{"COMPOUND": "C=CC(=O)N1CCN(c2nc(=O)n(-c3c(C)ccnc3C(C)C)c3nc(-c4c(O)cccc4F)c(F)cc23)C(C)C1 (stereo unspecified) + Cc1nc(NC(=O)N2CCCC2C(N)=O)sc1-c1ccnc(C(C)(C)C(F)(F)F)c1", "TARGET_OR_TEST_SYSTEM": "T-47D spheroids with HUVEC/MSC, viability", "MEASURED_PARAMETER": "IC50", "RESULT": "> 10 µM"}
{"COMPOUND": "CC(C)NCC(C(=O)N1CCN(c2ncnc3c2C(C)CC3O)CC1)c1ccc(Cl)cc1 (stereo unspecified) + CC(Nc1ccc2c(c1)OCCn1cc(N3C(=O)OCC3C(F)F)nc1-2)C(N)=O", "TARGET_OR_TEST_SYSTEM": "T-47D spheroids with HUVEC/MSC, viability", "MEASURED_PARAMETER": "IC50", "RESULT": "> 10 µM"}
{"COMPOUND": "CCCS(=O)(=O)Nc1ccc(F)c(C(=O)c2c[nH]c3ncc(-c4ccc(Cl)cc4)cc23)c1F + Cc1nc(NC(=O)N2CCCC2C(N)=O)sc1-c1ccnc(C(C)(C)C(F)(F)F)c1", "TARGET_OR_TEST_SYSTEM": "T-47D spheroids with HUVEC/MSC, viability", "MEASURED_PARAMETER": "IC50", "RESULT": "9.2 µM"}
{"COMPOUND": "CC(Cn1ccc(-c2ccc(C#N)c(Cl)c2)n1)NC(=O)c1cc(C(C)O)[nH]n1 (stereo unspecified) + CC(Nc1ncnc2nc[nH]c12)c1cc2cccc(Cl)c2c(=O)n1-c1ccccc1", "TARGET_OR_TEST_SYSTEM": "T-47D spheroids with HUVEC/MSC, viability", "MEASURED_PARAMETER": "IC50", "RESULT": "> 10 µM"}
{"COMPOUND": "CNC(=O)c1ccc(N2C(=S)N(c3ccc(C#N)c(C(F)(F)F)c3)C(=O)C2(C)C)cc1F + CC(Nc1ncnc2nc[nH]c12)c1cc2cccc(Cl)c2c(=O)n1-c1ccccc1", "TARGET_OR_TEST_SYSTEM": "T-47D spheroids with HUVEC/MSC, viability", "MEASURED_PARAMETER": "IC50", "RESULT": "> 10 µM"}
{"COMPOUND": "CC(=O)c1c(C)c2cnc(Nc3ccc(N4CCNCC4)cn3)nc2n(C2CCCC2)c1=O + COc1c(OCCCN2CCOCC2)ccc2c3n(c(=NC(=O)c4cnc(N)nc4)nc12)CCN3", "TARGET_OR_TEST_SYSTEM": "T-47D spheroids with HUVEC/MSC, viability", "MEASURED_PARAMETER": "IC50", "RESULT": "0.0397 µM"}
{"COMPOUND": "CC1(C)CCC(CN2CCN(c3ccc(C(=O)NS(=O)(=O)c4ccc(NCC5CCOCC5)c([N+](=O)[O-])c4)c(Oc4cnc5[nH]ccc5c4)c3)CC2)=C(c2ccc(Cl)cc2)C1 + COc1c(OCCCN2CCOCC2)ccc2c3n(c(=NC(=O)c4cnc(N)nc4)nc12)CCN3", "TARGET_OR_TEST_SYSTEM": "T-47D spheroids with HUVEC/MSC, viability", "MEASURED_PARAMETER": "IC50", "RESULT": "> 10 µM"}
{"COMPOUND": "Cn1cnc2c(F)c(Nc3ccc(Br)cc3Cl)c(C(=O)NOCCO)cc21 + CC(Nc1ccc2c(c1)OCCn1cc(N3C(=O)OCC3C(F)F)nc1-2)C(N)=O", "TARGET_OR_TEST_SYSTEM": "T-47D spheroids with HUVEC/MSC, viability", "MEASURED_PARAMETER": "IC50", "RESULT": "> 3 µM"}
{"COMPOUND": "C#Cc1c(F)ccc2cc(O)cc(-c3ncc4c(N5CC6CCC(C5)N6)nc(OCC56CCCN5CC(F)C6)nc4c3F)c12 (stereo unspecified) + CC(Nc1ccc2c(c1)OCCn1cc(N3C(=O)OCC3C(F)F)nc1-2)C(N)=O", "TARGET_OR_TEST_SYSTEM": "T-47D spheroids with HUVEC/MSC, viability", "MEASURED_PARAMETER": "IC50", "RESULT": "> 10 µM"}
{"COMPOUND": "CC(=O)c1c(C)c2cnc(Nc3ccc(N4CCNCC4)cn3)nc2n(C2CCCC2)c1=O + Cc1nc(NC(=O)N2CCCC2C(N)=O)sc1-c1ccnc(C(C)(C)C(F)(F)F)c1", "TARGET_OR_TEST_SYSTEM": "T-47D spheroids with HUVEC/MSC, viability", "MEASURED_PARAMETER": "IC50", "RESULT": "> 0.1 µM"}
{"COMPOUND": "C[C@@H](NC(=O)c1ncnc(N)c1Cl)c1ncc(C(=O)Nc2cc(C(F)(F)F)c(Cl)cn2)s1 + Cc1nc(NC(=O)N2CCCC2C(N)=O)sc1-c1ccnc(C(C)(C)C(F)(F)F)c1", "TARGET_OR_TEST_SYSTEM": "T-47D spheroids with HUVEC/MSC, viability", "MEASURED_PARAMETER": "IC50", "RESULT": "> 10 µM"}
{"COMPOUND": "CC(C)n1nc(-c2ccc3oc(N)nc3c2)c2c(N)ncnc21 + CC(Nc1ncnc2nc[nH]c12)c1cc2cccc(Cl)c2c(=O)n1-c1ccccc1", "TARGET_OR_TEST_SYSTEM": "T-47D spheroids with HUVEC/MSC, viability", "MEASURED_PARAMETER": "IC50", "RESULT": "0.0705 µM"}
{"COMPOUND": "CC1(C)CCC(CN2CCN(c3ccc(C(=O)NS(=O)(=O)c4ccc(NCC5CCOCC5)c([N+](=O)[O-])c4)c(Oc4cnc5[nH]ccc5c4)c3)CC2)=C(c2ccc(Cl)cc2)C1 + Cc1nc(NC(=O)N2CCCC2C(N)=O)sc1-c1ccnc(C(C)(C)C(F)(F)F)c1", "TARGET_OR_TEST_SYSTEM": "T-47D spheroids with HUVEC/MSC, viability", "MEASURED_PARAMETER": "IC50", "RESULT": "> 10 µM"}
{"COMPOUND": "Cn1nccc1Nc1nccc(-c2ccn(C(CO)c3ccc(Cl)c(F)c3)c(=O)c2)n1 (stereo unspecified) + CC(Nc1ncnc2nc[nH]c12)c1cc2cccc(Cl)c2c(=O)n1-c1ccccc1", "TARGET_OR_TEST_SYSTEM": "T-47D spheroids with HUVEC/MSC, viability", "MEASURED_PARAMETER": "IC50", "RESULT": "> 10 µM"}
{"COMPOUND": "CCCS(=O)(=O)Nc1ccc(F)c(C(=O)c2c[nH]c3ncc(-c4ccc(Cl)cc4)cc23)c1F + CC(Nc1ccc2c(c1)OCCn1cc(N3C(=O)OCC3C(F)F)nc1-2)C(N)=O", "TARGET_OR_TEST_SYSTEM": "T-47D spheroids with HUVEC/MSC, viability", "MEASURED_PARAMETER": "IC50", "RESULT": "8.53 µM"}
{"COMPOUND": "CNC(=O)c1ccc(N2C(=S)N(c3ccc(C#N)c(C(F)(F)F)c3)C(=O)C2(C)C)cc1F + COc1c(OCCCN2CCOCC2)ccc2c3n(c(=NC(=O)c4cnc(N)nc4)nc12)CCN3", "TARGET_OR_TEST_SYSTEM": "T-47D spheroids with HUVEC/MSC, viability", "MEASURED_PARAMETER": "IC50", "RESULT": "> 10 µM"}
